Please respond with reported Test D disease control rating for every item in the list.
- Test system: Septoria tritici
- assay protocol: Test D: wheat leaf blotch, preventive spray on wheat seedlings, visual disease rating
- Type: in vivo
- assay conditions: 40 ppm (marked *); 100 = 100 % disease control, 0 = no disease control relative to controls
- Description: A dash (−) indicates no test results.
Marks after values point to notes of the source that are not given here.

# compound, Test D disease control rating
rows = [
    ("Cc1cnn(-c2ccc(C3CC(C)(c4cccnc4)ON3C)cc2)c1 (centres unmarked) [Compound 69]", "12* %"),
    ("CN1OC(C)(c2cccnc2)CC1c1ccc(-n2ccc(-c3cccs3)n2)cc1 (centres unmarked) [Compound 47]", "42* %"),
]

Below is a list of compounds. For each, state its recorded Test D disease control rating.
1. CN1OC(C)(c2cccnc2)CC1c1ccc(-n2ccc(-c3ccccc3)n2)cc1 (centres unmarked) [Compound 41]
2. Cc1ccn(-c2ccc(C3CC(C)(c4cccnc4)ON3C)cc2)n1 (centres unmarked) [Compound 42]

a:
["65* %", "88* %"]

* * *

- Test system: Septoria tritici
- assay protocol: Test D: wheat leaf blotch, preventive spray on wheat seedlings, visual disease rating
- Type: in vivo
- assay conditions: 40 ppm (marked *); 100 = 100 % disease control, 0 = no disease control relative to controls
Marks after values point to notes of the source that are not given here.
Please respond with reported Test D disease control rating for every item in the list.

# compound, Test D disease control rating
records = [
    ("CN1OC(C)(c2cccnc2)CC1c1ccc(-c2ccc(OC(F)(F)F)cc2)cc1 (racemic) [Compound 17]", "30* %"),
]

Below is a list of compounds. For each, state its recorded Test D disease control rating.
1. CN1OC(C)(c2cccnc2)CC1c1ccc(-c2cncnc2)cc1 (stereo not shown) [Compound 53]
2. CN1OC(C)(c2cccnc2)CC1c1ccc(-n2nc(-c3ccccn3)cc2C(F)(F)F)cc1 (stereo not shown) [Compound 74]
3. CN1OC(C)(c2cccnc2)CC1c1ccc(-n2nc(C(F)(F)F)cc2-c2ccccn2)cc1 (stereo not shown) [Compound 71]
4. CN1OC(C)(c2cccnc2)CC1c1ccc(-c2ccc(OC(F)(F)F)cc2)cc1 (racemic) [Compound 18]

a:
68* %
2* %
10* %
58* %

Below is a list of compounds. For each, state its recorded Test D disease control rating.
1. CN1O[C@](c2cccnc2)(C(F)(F)F)C[C@@H]1c1ccc(I)cc1 (relative stereo)
2. CN1OC(C)(c2cccnc2)CC1c1ccc(-c2cccs2)cc1 (stereo not shown) [Compound 54]
3. Cc1cccc(C2CC(C)(c3cccnc3)ON2C)c1 (mixture of isomers)

a:
["88* %", "79* %", "3* %"]

Below is a list of compounds. For each, state its recorded Test D disease control rating.
1. CN1OC(C)(c2cccnc2)CC1c1ccc(-c2ccncc2)cc1 (stereo not shown) [Compound 60]
2. CN1OC(C)(c2cccnc2)CC1c1ccc(-c2cncnc2)cc1 (stereo not shown) [Compound 52]
3. CN1OC(C)(c2cccnc2)CC1c1ccc(-c2ccncc2)cc1 (stereo not shown) [Compound 61]
4. CN1O[C@](C)(c2cnccn2)C[C@@H]1c1ccc(-c2ccccc2)cc1 (relative stereo)
5. CN1OC(C)(c2cccnc2)CC1c1ccc(-n2ccc(-c3ccc(Br)cc3)n2)cc1 (stereo not shown) [Compound 49]
6. CN1OC(C)(c2cccnc2)CC1c1ccc(-n2nc(-c3ccccn3)cc2C(F)(F)F)cc1 (stereo not shown) [Compound 75]
7. CN1OC(C)(c2cccnc2)CC1c1ccc(-n2cc(I)cn2)cc1 (stereo not shown) [Compound 56]

a:
1: 3* %; 2: 76* %; 3: 5* %; 4: 95* %; 5: 27* %; 6: 19* %; 7: 74* %

Below is a list of compounds. For each, state its recorded Test D disease control rating.
1. CN1OC(C)(c2cccnc2)CC1c1ccc(-n2cccn2)cc1 (racemic) [Compound 33]
2. Cc1ccc(-c2ccc(C3CC(C)(c4cccnc4)ON3C)cc2)cc1 (racemic)
3. CN1OC(C)(c2cccnc2)CC1c1ccc(-n2ccc(-c3ccc(Br)cc3)n2)cc1 (stereo not shown) [Compound 48]
4. CN1OC(C)(c2cccnc2)CC1c1ccc(-n2ccc(-c3ccccc3)n2)cc1 (stereo not shown) [Compound 40]

a:
1. 80* %
2. 0* %
3. 43* %
4. 77* %
